- MEASUREMENT_TARGET: CaBzz1-D2
- TEST_METHOD_NOTES: SPOT peptide array binding signal intensity (averaged, normalized) (arbitrary units (background-subtracted, floor 0; scale differs between SH3 domains)); higher = stronger binding of the SH3 domain to the peptide
Measured SPOT peptide array binding signal intensity accompanies every entry in the list below.
Form field (numeric): enter value without unit.

[[record]]
binder = "IRMPSNPALPKKLLN"
data_value = 247

[[record]]
binder = "PKRRAPPPVPKKPSS"
data_value = 5750

[[record]]
binder = "DHPKGPPPPPPPDEK"
data_value = 2700


Next item in the queue.
Problem: Which SPOT peptide array binding signal intensity value is on record for "NFFRKKLGIPRKLKR" ?
Result: 26
